Test: Solubility measurement in various solvents at 25° C. (Procedure 1)
Type: physicochemical
Details: organic solvent or mixture, thermodynamic from solid, n-BuOH, solid phase Form IV

compound structure string	unit info	solubility
Cl.Cl.Cn1c(C(=O)Nc2cccc(-c3cccc(NC(=O)c4nc5c(n4C)CCN(CCC46CCC(C(=O)O)(CC4)C6)C5)c3Cl)c2Cl)nc2c1CCN(CCC13CCC(C(=O)O)(CC1)C3)C2	µg/mL	460

====

Experiment: Solubility measurement in various solvents at 25° C. (Procedure 1)
Format: physicochemical
Conditions: EtOH, organic solvent or mixture, thermodynamic from solid

compound structure string	unit info	solubility
Cl.Cl.Cn1c(C(=O)Nc2cccc(-c3cccc(NC(=O)c4nc5c(n4C)CCN(CCC46CCC(C(=O)O)(CC4)C6)C5)c3Cl)c2Cl)nc2c1CCN(CCC13CCC(C(=O)O)(CC1)C3)C2	µg/mL	390
